Taken from paper PMC4096046.

Test system: H37Rv Mtb
Measurement Protocol: MIC against replicating H37Rv Mtb in GAS and 7H12 media
Assay type: cell-based, Mycobacterium tuberculosis
Run Parameters: Mycobacterium tuberculosis, H37RV, read-out: MIC mean +/- against replicating Mtb in medium: GAS (μg/mL), GAS medium; H37Rv; recalculated from μM
# MIC per entry
Supply the numeric figure in µg/mL, leaving out any unit text.

In [3]: df
Out[3]:
                                   molecule  test_readout  recorded_measurement
0  Cc1ccn2c(C(=O)NCc3ccccc3)nnc2c1 [Compound 10]           MIC                    27
1  Cc1ccc2c(C(=O)NCc3ccccc3)n[nH]c2c1 [Compound 9]           MIC                  10.8
2  Cc1cnc2nc(C)c(C(=O)NCc3ccccc3)n2c1 [Compound 6]           MIC                  0.36

Query :: For the molecule Cc1ccc2nc(C)c(C(=O)NCc3ccccc3)n2c1 [Compound 2] , what MIC is on record?
Result :: 0.031

Query :: Same read-out for Cc1cc(C)n2nc(C(=O)NCc3ccccc3)nc2n1 [Compound 11] ?
Result :: 35.4
